All figures here come from ChEMBL document CHEMBL2434870.

System: Liver microsomes
assay.notes: Metabolic stability in rat liver microsomes
Assay type: ADME, Microsome
I'd appreciate it if you marked entries 1 when Stability is lower than 40% and -1 when it is not.

INPUT: State whether 40% exceeds Stability recorded for Cc1nc(Oc2ccc(C(=O)O)cc2)ccc1CN1CCC(N2C(=O)N(C3CCOCC3)C[C@H]2c2cccc(Cl)c2)CC1 .
OUTPUT: 1

INPUT: State whether 40% exceeds Stability recorded for Cc1nc(Oc2ccc(C(=O)O)cc2)ccc1CN1CCC(N2C(=O)N(C3CCOCC3)C[C@H]2c2ccccc2)CC1 .
OUTPUT: 1

INPUT: State whether 40% exceeds Stability recorded for CCc1nc(Oc2ccc(C(=O)O)cc2)ccc1CN1CCC(N2C(=O)N(C3CCOCC3)C[C@H]2c2ccccc2)CC1 .
OUTPUT: 1

INPUT: State whether 40% exceeds Stability recorded for O=C(O)c1ccc(Sc2ccc(CN3CCC(N4C(=O)N(C5CCOCC5)C[C@H]4c4ccccc4)CC3)cn2)cc1 .
OUTPUT: -1

INPUT: State whether 40% exceeds Stability recorded for Cc1nc(Oc2ccc(C(N)=O)cc2)ccc1CN1CCC(N2C(=O)N(C3CCOCC3)C[C@H]2c2ccccc2)CC1 .
OUTPUT: -1
